Where these numbers come from: patent EP4725957A1

system: Pseudomonas aeruginosa ATCC 27853; type: cell-based; conditions: ATCC 27853
Bridge positions count the residues as written; N and C are the ends. Square brackets hold non-standard residues; d marks the D form. Peptide text beside a SMILES is read from it. * marks the point of attachment. Heptanoyl(6-Me) = CC(C)CCCCC(=O)*; Sulfomethyl = O=S(=O)(O)C*; Dab = NCC[C@H](N)C(=O)O; Dap = NC[C@H](N)C(=O)O
Metric: MIC (µg/mL)
Respond numerically; units are µg/mL and should not be typed.

- Compound: "CC(C)CCCCC(=O)N[C@@H](CCN)C(=O)N[C@H](C(=O)N[C@H](CO)C(=O)N[C@H]1CCNC(=O)[C@H]([C@@H](C)OCS(=O)(=O)O)NC(=O)[C@H](CCN)NC(=O)[C@H](CCN)NC(=O)[C@H]([C@@H](C)O)NC(=O)[C@@H](Cc2ccccc2)NC(=O)[C@H](CCN)NC1=O)[C@@H](C)O [Compound 106] ({Heptanoyl(6-Me)}-[Dab]T[dS][Dab][Dab][dF]T[Dab][Dab]T(Sulfomethyl); lactam 4-C)"
  Quantity Unit: "µg/mL"
  MIC: 0.25

Req: Find the recorded MIC belonging to CC(C)CCCCC(=O)N[C@@H](CCN)C(=O)N[C@H](C(=O)N[C@@H](CN)C(=O)N[C@H]1CCNC(=O)[C@H]([C@@H](C)O)NC(=O)[C@H](CCN)NC(=O)[C@H](CCN)NC(=O)[C@H](CC(C)C)NC(=O)[C@@H](Cc2ccccc2)NC(=O)[C@H](CCN)NC1=O)[C@@H](C)O [Compound 37] ({Heptanoyl(6-Me)}-[Dab]T[Dap][Dab][Dab][dF]L[Dab][Dab]T; lactam 4-C) and report it.
Resp: 0.03
